All figures here come from patent US20230295162A1.

Below, each of the compounds is paired with its reported log10 of IC50 value.
# Test system: COLO-205 (human colorectal adenocarcinoma) cells
# Procedure Details: Colorimetric alamarBlue assay, long treatment
# Condition Summary: COLO 205, 72 h, read-out: cytotoxicity expressed in IC50, COLO-205
Answers are given as log10 of IC50 in µM.

The cases that follow already have their log10 of IC50 on record.
O=C1C2=C(CCN(Cc3ccccc3)C2)N2CCN=C2N1Cc1ccc([N+](=O)[O-])cc1F; 1.40
O=C1C2=C(CCN(Cc3ccc(F)cc3)C2)N2CCN=C2N1Cc1ccc(I)cc1; 0.00
O=C1C2=C(CCN(Cc3ccc(F)cc3)C2)N2CCN=C2N1Cc1ccc(C(F)(F)F)c(F)c1; 0.51
[N-]=[N+]=Nc1ccc(CN2C(=O)C3=C(CCN(Cc4ccccc4)C3)N3CCN=C23)cc1; -0.60
Cc1ccccc1CN1C(=O)C2=C(CCN(Cc3cccc(F)c3)C2)N2CCN=C12; 0.30
O=C1C2=C(CCN(Cc3ccccc3)C2)N2CCN=C2N1Cc1ccccc1F [I/2, reference compound]; 1.00

// next entry
Record O=C1C2=C(CCN(Cc3ccccc3F)C2)N2CCN=C2N1Cc1ccc(I)cc1 has COLO-205 (human colorectal adenocarcinoma) cells log10 of IC50 equal to 0.30
